Reference for the values: paper PMC2533715

experiment: Cell viability (MTT); settings: human, NCI-N87 gastric carcinoma cells
parameter: viability at 48 h, 100 µM (%)
API: value field is a number in %; no unit string.

smiles_entry=O=c1c(O)c(-c2ccc(O)c(O)c2)oc2cc(O)cc(O)c12 units_symbol=% assay_value=51
smiles_entry=C[C@@H]1O[C@@H](OC[C@H]2O[C@@H](Oc3c(-c4ccc(O)c(O)c4)oc4cc(O)cc(O)c4c3=O)[C@H](O)[C@@H](O)[C@@H]2O)[C@H](O)[C@H](O)[C@H]1O units_symbol=% assay_value=80
smiles_entry=Cn1c(=O)c2c(ncn2C)n(C)c1=O units_symbol=% assay_value=87

Consider the additional compound presented here.
Inquiry: Give its viability at 48 h, 100 µM value. Item: `C/C1=C\CC(C)(C)/C=C/C(=O)/C(C)=C/CC1`
Reply text: 16

====

Each item that follows carries a reported viability at 48 h, 20 µM.
assay: Cell viability (MTT); conditions: human, NCI-N87 gastric carcinoma cells
API: value field is a number in %; no unit string.

Example results:
compound=CC(C)=CCC/C(C)=C/COc1ccc2ccc(=O)oc2c1 parameter="viability at 48 h, 20 µM" assay_value=79
compound="O=C(OC1Cc2c(O)cc(O)cc2OC1c1cc(O)c(O)c(O)c1)c1cc(O)c(O)c(O)c1 (single isomer, unassigned; (-)) [EGCG, (−)-epigallocatechin-3-gallate]" parameter="viability at 48 h, 20 µM" assay_value=77

Inquiry: Give its viability at 48 h, 20 µM value. Item: C=C[C@H](OC(C)=O)c1ccc(OC(C)=O)cc1 [ACA, 1'-acetoxychavicol acetate]
Reply text: 20

Inquiry: What do you have for `C[C@H]1[C@H](C)CC[C@]2(C(=O)O)CC[C@]3(C)C(=CC[C@@H]4[C@@]5(C)CC[C@H](O)C(C)(C)[C@@H]5CC[C@]43C)[C@H]12` ?
Reply text: 38

Inquiry: What do you have for `COc1cc(/C=C/C(=O)O)ccc1O` ?
Reply text: 93

Inquiry: What do you have for `COc1ccc(-c2cc(=O)c3c(OC)c(OC)c(OC)c(OC)c3o2)cc1` ?
Reply text: 100

Inquiry: What do you have for `C=CCC/C(=N/OS(=O)(=O)O)S[C@@H]1O[C@H](CO)[C@@H](O)[C@H](O)[C@H]1O` ?
Reply text: 80

====

experiment: Cell viability (MTT); conditions: human, NCI-N87 gastric carcinoma cells
Each item that follows carries a reported viability at 48 h, 4 µM.
API: value field is a number in %; no unit string.

Example results:
molecule="S=C=NCc1ccccc1 [BITC, benzyl isothiocyanate]" units_symbol=% assay_value=96
molecule="C[C@H]1[C@H](C)CC[C@]2(C(=O)O)CC[C@]3(C)C(=CC[C@@H]4[C@@]5(C)CC[C@H](O)C(C)(C)[C@@H]5CC[C@]43C)[C@H]12 [Ursolic acid]" units_symbol=% assay_value=91
molecule="COc1ccc(-c2cc(=O)c3c(OC)c(OC)c(OC)c(OC)c3o2)cc1 [Tangeretin]" units_symbol=% assay_value=98
molecule="Oc1cc(O)c2c(c1)O[C@@H](c1ccc(O)c(O)c1)[C@H](O)C2 [(−)-Catechin]" units_symbol=% assay_value=97
molecule="C=CCC/C(=N/OS(=O)(=O)O)S[C@@H]1O[C@H](CO)[C@@H](O)[C@H](O)[C@H]1O [BUGLS, gluconapin]" units_symbol=% assay_value=88
molecule="C/C1=C\\CC(C)(C)/C=C/C(=O)/C(C)=C/CC1 [Zerumbone]" units_symbol=% assay_value=100
molecule="O=c1cc(-c2ccc(O)c(O)c2)oc2cc(O)cc(O)c12 [Luteolin]" units_symbol=% assay_value=99

Consider the additional molecule presented here.
Inquiry: Give its viability at 48 h, 4 µM value. Item: O=c1c(O)c(-c2ccc(O)c(O)c2)oc2cc(O)cc(O)c12 [Quercetin]
Reply text: 100

====

test: Cell viability (MTT); conditions: human, NCI-N87 gastric carcinoma cells
parameter: viability at 48 h, 20 µM (%)
API: value field is a number in %; no unit string.

compound="C=CCCN=C=S [BUITC, butenyl isothiocyanate]" assay_value=73

Inquiry: Give its viability at 48 h, 20 µM value. Item: `CC(C)=CCC/C(C)=C/COc1c2ccoc2cc2oc(=O)ccc12`
Reply text: 79

Inquiry: What do you have for CC(C)=CC(=O)CC(C)c1ccc(C)cc1 (centres unmarked) ?
Reply text: 100

Inquiry: What do you have for `COc1ccc(-c2cc(=O)c3c(OC)c(OC)c(OC)c(OC)c3o2)cc1OC` ?
Reply text: 93

Inquiry: What do you have for `O=C(O)c1cc(O)c(O)c(O)c1` ?
Reply text: 73

====

Each item that follows carries a reported CC50 at 48 h.
experiment: Cell viability (MTT); settings: human
API: value field is a number in µM; no unit string.

Example results:
molecule="C=CCCN=C=S [BUITC, butenyl isothiocyanate]" parameter="CC50 at 48 h" units_symbol=µM assay_value=81.5
molecule="CC(C)=CCC/C(C)=C/COc1ccc2ccc(=O)oc2c1 [Auraptene]" parameter="CC50 at 48 h" units_symbol=µM assay_value=59.2
molecule="S=C=NCc1ccccc1 [BITC, benzyl isothiocyanate]" parameter="CC50 at 48 h" units_symbol=µM assay_value=44.3

Consider the additional molecule presented here.
Inquiry: Give its CC50 at 48 h value. Item: S=C=NCCc1ccccc1 [PEITC, phenetyl isothiocyanate]
Reply text: 61.3

====

assay: Cell viability (MTT); conditions: human, NCI-N87 gastric carcinoma cells
parameter: viability at 48 h, 100 µM (%)
API: value field is a number in %; no unit string.

Inquiry: Give its viability at 48 h, 100 µM value. Item: O=c1cc(-c2ccc(O)c(O)c2)oc2cc(O)cc(O)c12 [Luteolin]
Reply text: 61

Inquiry: What do you have for Oc1cc(O)c2c(c1)O[C@@H](c1ccc(O)c(O)c1)[C@H](O)C2 [(−)-Catechin] ?
Reply text: 89

====

Each item that follows carries a reported viability at 48 h, 100 µM.
test: Cell viability (MTT); conditions: human, NCI-N87 gastric carcinoma cells
API: value field is a number in %; no unit string.

Example results:
molecule=COc1cc(/C=C/C(=O)CC(=O)/C=C/c2ccc(O)c(OC)c2)ccc1O parameter="viability at 48 h, 100 µM" assay_value=14
molecule=COc1ccc(-c2cc(=O)c3c(OC)c(OC)c(OC)c(OC)c3o2)cc1OC parameter="viability at 48 h, 100 µM" assay_value=58
molecule=C=CCC/C(=N/OS(=O)(=O)O)S[C@@H]1O[C@H](CO)[C@@H](O)[C@H](O)[C@H]1O parameter="viability at 48 h, 100 µM" assay_value=79
molecule="C=C[C@H](OC(C)=O)c1ccc(OC(C)=O)cc1 [ACA, 1'-acetoxychavicol acetate]" parameter="viability at 48 h, 100 µM" assay_value=6.1

Inquiry: Give its viability at 48 h, 100 µM value. Item: `O=c1c(-c2ccc(O)cc2)coc2cc(O)cc(O)c12`
Reply text: 55

Inquiry: What do you have for C=CCCN=C=S [BUITC, butenyl isothiocyanate] ?
Reply text: 44

Inquiry: What do you have for `CC(C)=CCC/C(C)=C/COc1c2ccoc2cc2oc(=O)ccc12` ?
Reply text: 59

Inquiry: What do you have for `O=C1O[C@H]([C@@H](O)CO)C(O)=C1O` ?
Reply text: 86

Inquiry: What do you have for `COc1ccc(-c2cc(=O)c3c(OC)c(OC)c(OC)c(OC)c3o2)cc1` ?
Reply text: 63

====

assay: Cell viability (MTT); conditions: human, NCI-N87 gastric carcinoma cells
Each item that follows carries a reported CC50 at 48 h.

Example results:
compound=O=S(=O)(O)O/N=C(/CCc1ccccc1)S[C@@H]1O[C@H](CO)[C@@H](O)[C@H](O)[C@H]1O assay_value="> 100 µM"
compound=CC(C)=CCC/C(C)=C/COc1c2ccoc2cc2oc(=O)ccc12 assay_value="> 100 µM"

Inquiry: Give its CC50 at 48 h value. Item: `C/C1=C\CC(C)(C)/C=C/C(=O)/C(C)=C/CC1`
Reply text: 60.5 µM

Inquiry: What do you have for Oc1cc(O)c2c(c1)O[C@@H](c1ccc(O)c(O)c1)[C@H](O)C2 [(−)-Catechin] ?
Reply text: > 100 µM

Inquiry: What do you have for C=C[C@H](OC(C)=O)c1ccc(OC(C)=O)cc1 [ACA, 1'-acetoxychavicol acetate] ?
Reply text: 25 µM

Inquiry: What do you have for `C=CCC/C(=N/OS(=O)(=O)O)S[C@@H]1O[C@H](CO)[C@@H](O)[C@H](O)[C@H]1O` ?
Reply text: > 100 µM

====

test: Cell viability (MTT); settings: human, NCI-N87 gastric carcinoma cells
Each item that follows carries a reported viability at 48 h, 4 µM.
API: value field is a number in %; no unit string.

Example results:
smiles_entry=CC(C)=CCC/C(C)=C/COc1c2ccoc2cc2oc(=O)ccc12 parameter="viability at 48 h, 4 µM" units_symbol=% assay_value=93
smiles_entry=COc1cc(/C=C/C(=O)CC(=O)/C=C/c2ccc(O)c(OC)c2)ccc1O parameter="viability at 48 h, 4 µM" units_symbol=% assay_value=89
smiles_entry=O=C1O[C@H]([C@@H](O)CO)C(O)=C1O parameter="viability at 48 h, 4 µM" units_symbol=% assay_value=97
smiles_entry=O=c1c(-c2ccc(O)cc2)coc2cc(O)cc(O)c12 parameter="viability at 48 h, 4 µM" units_symbol=% assay_value=100
smiles_entry=O=S(=O)(O)O/N=C(/CCc1ccccc1)S[C@@H]1O[C@H](CO)[C@@H](O)[C@H](O)[C@H]1O parameter="viability at 48 h, 4 µM" units_symbol=% assay_value=99
smiles_entry=O=C(O)c1cc(O)c(O)c(O)c1 parameter="viability at 48 h, 4 µM" units_symbol=% assay_value=97

Inquiry: Give its viability at 48 h, 4 µM value. Item: `Cn1c(=O)c2c(ncn2C)n(C)c1=O`
Reply text: 100
